These entries and their values trace back to patent US20240301061A1.

// values below are reported Emax ratio to BG87P
Target: T1, human claudin 6 (CLDN6) (human, UniProt P56747 1-220)
T1 construct: also called human CLDN6; hCLDN6
T1 sequence: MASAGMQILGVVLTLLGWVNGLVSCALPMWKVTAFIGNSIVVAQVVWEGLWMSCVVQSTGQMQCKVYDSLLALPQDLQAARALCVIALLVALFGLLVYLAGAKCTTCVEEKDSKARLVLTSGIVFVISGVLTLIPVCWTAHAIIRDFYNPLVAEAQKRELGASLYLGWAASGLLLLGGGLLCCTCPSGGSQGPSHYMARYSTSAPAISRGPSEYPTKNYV
Experiment: flow cytometry, HEK293T-human CLDN6 cells; ratio to chBG87P
measuredAttribute: Emax ratio to BG87P

binder	observedMeasurement
BG87P-Bz2 (antibody, V domains shown) VH: QIQLVQSGAEVKKPGASVKVSCKASGYTFTDYHINWVRQAPGQRLEWMGWIYPGSGYTKYNEKFKVRVTLTVDTSASTAYMELSSLRSEDTAVYFCARSGIYHYVSSYYFDHWGKGTTVTVSS VL: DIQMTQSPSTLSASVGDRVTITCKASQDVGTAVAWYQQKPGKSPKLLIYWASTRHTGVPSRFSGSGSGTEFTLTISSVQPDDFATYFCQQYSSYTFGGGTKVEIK	0.44
BG87P-m2 (antibody, V domains shown, PTM removal variant of chBG87P) VH: QIQLQQSGPELVKPGASVKISCKASGYSFTDYHINWVKQRPGQGLEWIGWIYPGSGYTKYNEKFKVKATLTVDTSSSTAYMHLTSLTSEDSAVYFCARSGIYHYVSSYYFQHWGQGTTLTVSS VL: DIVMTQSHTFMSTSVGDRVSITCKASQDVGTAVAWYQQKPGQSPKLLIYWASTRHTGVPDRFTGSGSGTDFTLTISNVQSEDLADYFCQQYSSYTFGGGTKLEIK	1.05
BG87P-Bz3 (antibody, V domains shown, also called BG87P-B23) VH: QIQLVQSGAEVKKPGASVKVSCKASGYSFTDYHINWVRQAPGQRLEWMGWIYPGSGYTKYNEKFKVRVTITVDTSASTAYMELSSLRSEDTAVYFCARSGIYHYVSSYYFDHWGKGTTVTVSS VL: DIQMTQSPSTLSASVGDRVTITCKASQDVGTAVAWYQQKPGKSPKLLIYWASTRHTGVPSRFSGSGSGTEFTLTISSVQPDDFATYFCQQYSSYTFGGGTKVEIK	0.56
BG87P-21 (antibody, V domains shown, 2nd round humanized variant) VH: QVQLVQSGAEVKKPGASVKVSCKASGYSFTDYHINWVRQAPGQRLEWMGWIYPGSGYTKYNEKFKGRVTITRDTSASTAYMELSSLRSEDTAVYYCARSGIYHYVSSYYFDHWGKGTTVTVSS VL: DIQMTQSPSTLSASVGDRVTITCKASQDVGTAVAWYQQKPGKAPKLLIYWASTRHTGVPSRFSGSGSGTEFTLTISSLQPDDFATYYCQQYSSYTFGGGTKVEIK	0.78
